Molecular target: CXCR3 (Homo sapiens)
Construct: host or cells: CHO-K1 (cAMP Hunter CHOK1 CXCR3 Gi cell line)
Assay: CXCR3 cAMP agonist assay (cAMP Hunter CHOK1 CXCR3 Gi cell line, forskolin-stimulated, HitHunter cAMP detection)
Format: cell-based
Conditions: cAMP Hunter CHOK1 CXCR3 Gi cells, 20 μM forskolin, 30 minutes; read-out: Activity (CXCR3 cAMP agonist assay compound EC50)
compounds and their reported EC50
PARAMETER: EC50

CC(C)C1CCCCN1C(=O)CCC(=O)N1Cc2ccccc2C[C@H]1C(=O)N[C@@H](CCN)C(=O)Nc1ccc(Cl)c(Cl)c1F (stereo partly drawn): 50 to 250 nM
NCC[C@H](NC(=O)[C@@H]1Cc2ccc(F)cc2CN1C(=O)CCC(=O)N1CCCC12CCC2)C(=O)Nc1ccc(Cl)c(Cl)c1F: < 50 nM
Cc1cc(NC(=O)[C@H](CCN)NC(=O)[C@@H]2Cc3ccccc3CN2C(=O)CCC(=O)N2CC3CCC2C3)ccc1Cl (stereo partly drawn): < 50 nM

---

Target: CXCR3 (Homo sapiens)
Construct: host or cells: CHO-K1 (cAMP Hunter CHOK1 CXCR3 Gi cell line)
Assay: CXCR3 cAMP agonist assay (cAMP Hunter CHOK1 CXCR3 Gi cell line, forskolin-stimulated, HitHunter cAMP detection)
Assay type: cell-based
Conditions: cAMP Hunter CHOK1 CXCR3 Gi cells, 20 μM forskolin, 30 minutes; read-out: Activity (CXCR3 cAMP agonist assay compound EC50)
pEC50: −log10 of the molar value.
compounds and their reported pEC50
PARAMETER: pEC50

Cc1ccc(C#N)cc1NC(=O)[C@H](CCN)NC(=O)[C@@H]1Cc2ccccc2CN1C(=O)CCC(=O)c1ccccc1: 6.30 to 6.60
Cc1cc(NC(=O)[C@H](CCN)NC(=O)[C@@H]2Cc3ccccc3CN2C(=O)CCC(=O)N2CCN(CC#N)CC2)ccc1Cl: 6.60 to 7.30
Cc1cc(NC(=O)[C@H](CCN)NC(=O)[C@@H]2Cc3ccccc3CN2C(=O)CCC(=O)N2CCC[C@H](C)C2)ccc1Cl: > 7.30
Cc1cc(NC(=O)[C@H](CCN)NC(=O)[C@@H]2Cc3ccccc3CN2C(=O)CCC(=O)c2ccccc2)ccc1Cl: > 7.30
NCC[C@H](NC(=O)[C@@H]1Cc2ccccc2CN1C(=O)CCC(=O)N1CCC2(CC1)COC2)C(=O)Nc1ccc(Cl)c(Cl)c1F: 6.30 to 6.60
Cc1cc(NC(=O)[C@H](CCN)NC(=O)[C@@H]2Cc3ccccc3CN2C(=O)CCC(=O)N2CCOCC2(C)C)ccc1Cl: > 7.30

---

Test: Mouse pharmacokinetics after oral gavage, plasma drug concentration by LC-MS/MS (C57BL/6)
Format: in vivo, C57bl/6 mice
Settings: C57BL/6, 60 mg/kg, female mice
PARAMETER: apparent oral clearance (CL/F) (mL/min/kg)

Cc1cc(NC(=O)[C@H](CCN)NC(=O)[C@@H]2Cc3ccccc3CN2C(=O)CCC(=O)c2ccccc2)c(OC(F)(F)F)cc1C: 47
CCc1cc(NC(=O)[C@H](CCN)NC(=O)[C@@H]2Cc3ccccc3CN2C(=O)CCC(=O)c2ccccc2)ccc1Cl: 176
N#Cc1cc2c(cc1NC(=O)[C@H](CCN)NC(=O)[C@@H]1Cc3ccccc3CN1C(=O)CCC(=O)c1ccccc1)CCC2: 393

---

Target: CXCR3 (Homo sapiens, UniProt P49682)
Construct: host or cells: CHO-K1 (cAMP Hunter CHOK1 CXCR3 Gi cell line)
Sequence (P49682 1-368): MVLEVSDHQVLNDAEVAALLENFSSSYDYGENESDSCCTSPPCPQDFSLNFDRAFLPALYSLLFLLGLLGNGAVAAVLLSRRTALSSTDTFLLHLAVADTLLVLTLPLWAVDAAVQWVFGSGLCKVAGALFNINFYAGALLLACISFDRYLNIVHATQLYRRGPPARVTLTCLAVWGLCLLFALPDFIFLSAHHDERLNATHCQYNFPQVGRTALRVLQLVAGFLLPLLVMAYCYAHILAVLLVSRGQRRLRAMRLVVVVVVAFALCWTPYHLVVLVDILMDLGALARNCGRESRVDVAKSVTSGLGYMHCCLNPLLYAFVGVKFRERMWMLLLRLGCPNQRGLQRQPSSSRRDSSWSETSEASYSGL
Assay: CXCR3 cAMP agonist assay (cAMP Hunter CHOK1 CXCR3 Gi cell line, forskolin-stimulated, HitHunter cAMP detection)
Assay type: cell-based
Settings: cAMP Hunter CHOK1 CXCR3 Gi cells, 20 μM forskolin, 30 minutes; read-out: Activity (CXCR3 cAMP agonist assay compound EC50)
PARAMETER: EC50

CC[C@@H]1CCN(C(=O)CCC(=O)N2Cc3ccccc3C[C@H]2C(=O)N[C@@H](CCN)C(=O)Nc2ccc(Cl)c(C)c2)C1: < 50 nM
COc1ccccc1NC(=O)[C@H](CCN)NC(=O)[C@@H]1Cc2ccccc2CN1C(=O)CCC(=O)c1ccccc1: 250 to 500 nM
NCC[C@H](NC(=O)[C@@H]1Cc2ccccc2CN1C(=O)CCC(=O)c1ccccc1)C(=O)Nc1ccc(Cl)cc1Cl: 50 to 250 nM

---

Biological target: CXCR3 (Homo sapiens, UniProt P49682)
Construct: host or cells: CHO-K1 (cAMP Hunter CHOK1 CXCR3 Gi cell line)
Sequence (P49682 1-368): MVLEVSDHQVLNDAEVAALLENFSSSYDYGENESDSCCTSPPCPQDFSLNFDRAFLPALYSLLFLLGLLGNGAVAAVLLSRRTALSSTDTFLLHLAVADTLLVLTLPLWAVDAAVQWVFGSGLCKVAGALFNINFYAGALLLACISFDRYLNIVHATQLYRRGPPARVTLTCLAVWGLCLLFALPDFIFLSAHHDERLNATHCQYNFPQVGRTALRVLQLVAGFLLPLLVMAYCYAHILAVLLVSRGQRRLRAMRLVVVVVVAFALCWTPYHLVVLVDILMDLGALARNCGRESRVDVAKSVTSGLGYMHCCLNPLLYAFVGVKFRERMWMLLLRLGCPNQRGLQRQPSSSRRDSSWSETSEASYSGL
Test: CXCR3 cAMP agonist assay (cAMP Hunter CHOK1 CXCR3 Gi cell line, forskolin-stimulated, HitHunter cAMP detection)
Assay type: cell-based
Details: cAMP Hunter CHOK1 CXCR3 Gi cells, 20 μM forskolin, 30 minutes; read-out: Activity (CXCR3 cAMP agonist assay compound EC50)
PARAMETER: EC50

CCc1ccc(NC(=O)[C@H](CCN)NC(=O)[C@@H]2Cc3ccccc3CN2C(=O)CCC(=O)c2ccccc2)c(F)c1 [Compound 2-56]: 250 to 500 nM
CN(C)[C@@H]1CCN(C(=O)CCC(=O)N2Cc3ccccc3C[C@H]2C(=O)N[C@@H](CCN)C(=O)Nc2ccc(Cl)c(Cl)c2F)C1 [Compound 15-31]: < 50 nM
Cc1cc(C(=O)CCC(=O)N2Cc3ccccc3C[C@H]2C(=O)N[C@@H](CCCCN)C(=O)Nc2ccc(Cl)c(C)c2)ccc1F [Compound 7-3]: 50 to 250 nM
CC(C)(C)C1CCN(C(=O)CCC(=O)N2Cc3ccccc3C[C@H]2C(=O)N[C@@H](CCN)C(=O)Nc2ccc(Cl)c(Cl)c2F)C1 (stereo partly shown) [Compound 15-34]: < 50 nM
NCC[C@H](NC(=O)[C@@H]1Cc2ccccc2CN1C(=O)CCC(=O)c1ccccc1)C(=O)Nc1cc(Cl)c(Cl)c(Cl)c1 [Compound 14-4]: < 50 nM
Cc1cc(NC(=O)[C@H](CCN)NC(=O)[C@@H]2Cc3ccccc3CN2C(=O)CCC(=O)N2CCN(c3nccs3)CC2)ccc1Cl [Compound 12-108]: 50 to 250 nM
Cc1cc(NC(=O)[C@H](CCN)NC(=O)[C@@H]2Cc3ccccc3CN2C(=O)CCC(=O)N2CCCC3(CCC3)C2)ccc1Cl [Compound 12-78]: < 50 nM
Cc1cc(NC(=O)[C@H](CCN2CCCCC2)NC(=O)[C@@H]2Cc3ccccc3CN2C(=O)CCC(=O)c2ccccc2)ccc1Cl [Compound 3-9]: < 50 nM
Cc1cc(NC(=O)[C@H](CCN)NC(=O)[C@@H]2Cc3ccccc3CN2C(=O)CCC(=O)N2CCN3CCC[C@@H]3C2)ccc1Cl [Compound 12-110]: < 50 nM
NCC[C@H](NC(=O)[C@@H]1Cc2ccccc2CN1C(=O)CCC(=O)N1CCC2(CCC2)C1)C(=O)Nc1ccc(Cl)c(Cl)c1F [Compound 15-33]: < 50 nM
Cc1cc(NC(=O)[C@H](CCN)NC(=O)[C@@H]2Cc3ccccc3CN2C(=O)CCC(=O)N2CCN(C3CC3)CC2)ccc1Cl [Compound 12-33]: 50 to 250 nM
CN(CC(C)(C)C)C(=O)CCC(=O)N1Cc2ccccc2C[C@H]1C(=O)N[C@@H](CCN)C(=O)Nc1ccc(Cl)c(Cl)c1F [Compound 15-43]: < 50 nM
CC1(C)CCc2cc(NC(=O)[C@H](CCN)NC(=O)[C@@H]3Cc4ccccc4CN3C(=O)CCC(=O)c3ccccc3)ccc21 [Compound 2-72]: < 50 nM
N#Cc1c(NC(=O)[C@H](CCN)NC(=O)[C@@H]2Cc3ccccc3CN2C(=O)CCC(=O)c2ccccc2)ccc2c1CCC2 [Compound 35-1]: < 50 nM
Cc1cc(NC(=O)C(CC2CCNCC2)NC(=O)[C@@H]2Cc3ccccc3CN2C(=O)CCC(=O)c2ccccc2)ccc1Cl (mixture of isomers) [Compound 4-11]: 50 to 250 nM
Cc1cc(NC(=O)[C@H](CCN)NC(=O)[C@@H]2Cc3ccccc3CN2C(=O)CCC(=O)N2CCC(C(C)(C)C)CC2)ccc1Cl [Compound 12-87]: < 50 nM
CN(C)C(=N)NCCC[C@H](NC(=O)[C@@H]1Cc2ccccc2CN1C(=O)CCC(=O)c1ccccc1)C(=O)Nc1ccc(Cl)c(Cl)c1 [Compound 5-1]: < 50 nM
Cc1cc(NC(=O)[C@H](CCN)NC(=O)[C@@H]2Cc3ccccc3CN2C(=O)CCC(=O)N2CCN(c3ncccn3)CC2)ccc1Cl [Compound 12-107]: 50 to 250 nM
CN(CCC(C)(C)C)C(=O)CCC(=O)N1Cc2ccccc2C[C@H]1C(=O)N[C@@H](CCN)C(=O)Nc1ccc(Cl)c(Cl)c1F [Compound 15-44]: < 50 nM
Cc1cccc(NC(=O)C2(NC(=O)[C@@H]3Cc4ccccc4CN3C(=O)CCC(=O)c3ccccc3)CCNCC2)c1F [Compound 13-3]: 50 to 250 nM
CN1CN(C(=O)CCC(=O)N2Cc3ccccc3C[C@H]2C(=O)N[C@@H](CCN)C(=O)Nc2ccc(Cl)c(Cl)c2F)CC1=O [Compound 15-45]: 250 to 500 nM
NCC[C@H](NC(=O)[C@@H]1Cc2ccccc2CN1C(=O)CCC(=O)N1CCC2CCCCC21)C(=O)Nc1ccc(Cl)c(Cl)c1F (stereo partly shown) [Compound 15-38]: < 50 nM
Cc1cc(NC(=O)[C@H](CCN)NC(=O)[C@@H]2Cc3ccccc3CN2C(=O)CCC(=O)N2CCCC2(C)C)ccc1Cl [Compound 12-31]: < 50 nM
Cc1cc(NC(=O)[C@H](CCNC(=O)CN)NC(=O)[C@@H]2Cc3ccccc3CN2C(=O)CCC(=O)N2CCCCC2)ccc1Cl [Compound 31-1]: < 50 nM
Cc1cc(NC(=O)[C@H](CCN)NC(=O)[C@@H]2Cc3ccccc3CN2C(=O)CCC(=O)N2CCCC3(CCC3)C2)ncc1Cl [Compound 12-158]: < 50 nM

The measurements presented in this section are drawn from patent US11040954B1.
